Data provenance is patent US20160199438A1.

Measured Emax, % (intracellular cAMP) by item
Target: human glucagon-like peptide 1 receptor (human, UniProt P43220 24-463)
Test: cell-based or functional assay
Report the figure in % without appending any unit label.

Below are worked cases with known answers.
Please look up its Emax, % (intracellular cAMP): YXEGTFTSDYSIXLDKIAQKAXVQWLIAGGPSSGAPPPS (Aib at positions 2 and 13; K at position 20 conjugated at the epsilon-amino group with ([2-(2-Amino-ethoxy)-ethoxy]-acetyl)2-(γGlu)1-CO-(CH2)18-CO2H; 1-Nal at position 22; C-terminal primary amide, Synthetic acylated peptide, trifluoroacetate salt) [Example 8]
88.4

Which Emax, % (intracellular cAMP) value is on record for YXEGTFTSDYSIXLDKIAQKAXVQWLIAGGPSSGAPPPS (Aib at positions 2 and 13; K at position 20 conjugated at the epsilon-amino group with ([2-(2-Amino-ethoxy)-ethoxy]-acetyl)2-(γGlu)2-CO-(CH2)16-CO2H; 1-Nal at position 22; C-terminal primary amide, Synthetic acylated peptide, trifluoroacetate salt) [Example 7] ?
97.2

For the binder shown here, YXEGTFTSDYSIXLDKIAQKAFVQWLIAGGPSSGAPPPS (Aib at positions 2 and 13; K at position 20 conjugated at the epsilon-amino group with ([2-(2-Amino-ethoxy)-ethoxy]-acetyl)2-(γGlu)2-CO-(CH2)18-CO2H; C-terminal primary amide, Synthetic acylated peptide, trifluoroacetate salt) [Example 5] , give the reported Emax, % (intracellular cAMP).
105

Which Emax, % (intracellular cAMP) is listed for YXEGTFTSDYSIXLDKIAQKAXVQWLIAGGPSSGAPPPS (Aib at positions 2 and 13; K at position 20 conjugated at the epsilon-amino group with ([2-(2-Amino-ethoxy)-ethoxy]-acetyl)2-(γGlu)1-CO-(CH2)16-CO2H; 1-Nal at position 22; C-terminal primary amide, Synthetic acylated peptide, trifluoroacetate salt) [Example 6] ?
104

If you can, please state the reported Emax, % (intracellular cAMP) value of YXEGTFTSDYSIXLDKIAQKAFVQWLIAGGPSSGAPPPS (Aib at positions 2 and 13; K at position 20 conjugated at the epsilon-amino group with ([2-(2-Amino-ethoxy)-ethoxy]-acetyl)2-(γGlu)2-CO-(CH2)16-CO2H; C-terminal primary amide, Synthetic acylated peptide, trifluoroacetate salt) [Example 4] .
100

Emax, % (intracellular cAMP) for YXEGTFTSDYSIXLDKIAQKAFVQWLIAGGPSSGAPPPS (Aib at positions 2 and 13; K at position 20 conjugated at the epsilon-amino group with ([2-(2-Amino-ethoxy)-ethoxy]-acetyl)2-(γGlu)1-CO-(CH2)18-CO2H; C-terminal primary amide) [Example 1] ?
85.2

// query Emax, % (intracellular cAMP) value for entry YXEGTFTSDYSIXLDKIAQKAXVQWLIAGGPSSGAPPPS (Aib at positions 2 and 13; K at position 20 conjugated at the epsilon-amino group with ([2-(2-Amino-ethoxy)-ethoxy]-acetyl)2-(γGlu)2-CO-(CH2)18-CO2H; 1-Nal at position 22; C-terminal primary amide, Synthetic acylated peptide, trifluoroacetate salt) [Example 2]
98.2

Turning now to a further binder:
Param item = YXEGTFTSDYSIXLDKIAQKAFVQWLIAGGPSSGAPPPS (Aib at positions 2 and 13; K at position 20 conjugated at the epsilon-amino group with ([2-(2-Amino-ethoxy)-ethoxy]-acetyl)2-(γGlu)1-CO-(CH2)16-CO2H; C-terminal primary amide, Synthetic acylated peptide, trifluoroacetate salt) [Example 3] ; retrieve measured Emax, % (intracellular cAMP).
96.2
